measured target: hTRMT10A (Homo sapiens, UniProt Q8TBZ6, D210N)
Sequence (Q8TBZ6 whole entry D210N): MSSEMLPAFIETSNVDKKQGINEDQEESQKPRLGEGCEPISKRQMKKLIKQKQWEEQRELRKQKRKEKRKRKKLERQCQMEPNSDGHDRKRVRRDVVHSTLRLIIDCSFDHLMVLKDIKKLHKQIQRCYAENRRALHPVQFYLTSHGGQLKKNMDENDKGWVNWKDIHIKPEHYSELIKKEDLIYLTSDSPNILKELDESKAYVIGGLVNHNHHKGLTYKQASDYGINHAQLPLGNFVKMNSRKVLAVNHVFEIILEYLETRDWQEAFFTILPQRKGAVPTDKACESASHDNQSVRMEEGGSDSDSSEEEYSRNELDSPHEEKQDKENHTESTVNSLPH
measurement protocol: biochemical
readout name: pKd
Answers are plain numbers, as −log10 of the molar value.

What is its pKd for hTRMT10A (Homo sapiens, UniProt Q8TBZ6, D210N)? Entry: C[S+](CC[C@H](N)C(=O)O)C[C@H]1O[C@@H](n2cnc3c(N)ncnc32)[C@H](O)[C@@H]1O (stereo partly shown)
4.22

----------
measured target: hTRMT10A (Homo sapiens, UniProt Q8TBZ6)
Sequence (Q8TBZ6 whole entry): as the sequence (Q8TBZ6 whole entry D210N) above, with N210D counted along it
readout name: pKd
Give bare numbers, as −log10 of the molar value.

Consider the molecule C[S+](CC[C@H](N)C(=O)O)C[C@H]1O[C@@H](n2cnc3c(N)ncnc32)[C@H](O)[C@@H]1O (stereo partly shown) [S-adenosyl methionine] and give its measured pKd.
4.75

Sourced from paper PMC5587797
